Can you tell me Renal Clearance for the items I'm about to list?
Method Description: renal clearance, Fup*GFR (PBK parameter)
Condition Notes: method Fup*GFR
Peptide text beside a SMILES is read from it.
Provide only the numeric value, understood in L/h.

IN: Which Renal Clearance is reported for this compound? CCCCC(CC)C(=O)O (stereo not drawn)
OUT: 0.008

IN: Item CC(C)(CO)C(O)C(=O)NCCCO (stereo not drawn) has what recorded Renal Clearance?
OUT: 6.348

IN: Which measured Renal Clearance value corresponds to Cc1cc(C(C)(C)C)c(O)c(C(C)(C)C)c1 [Butylated hydroxytoluene (BHT), Butylated hydroxytoluene] ?
OUT: 0.02382

IN: Given the entry O=CCCCC=O , report its measured Renal Clearance.
OUT: 6.185

IN: // lookup Renal Clearance for COC(=O)[C@H](Cc1ccccc1)NC(=O)[C@@H](N)CC(=O)O [Aspartame] (H-Asp-Phe-OMe)
OUT: 6.049

IN: Entry under review: Cc1c(O)cccc1O . Reported Renal Clearance?
OUT: 4.792

IN: Please report the recorded Renal Clearance for CCCCCCC(O)CO (stereo not drawn) .
OUT: 5.129

IN: What does the record list as Renal Clearance for Nc1cc([N+](=O)[O-])cc(Cl)c1O ?
OUT: 0.034

IN: # Renal Clearance lookup, item Nc1ccc(NCCO)c([N+](=O)[O-])c1
OUT: 4.496

###

Provide the recorded CDR fold difference to non-pregnant for the entries that follow.
Method Description: Human in vivo PK data: concentration-dose ratio (CDR) and toxicokinetic variability factor (TKVF)
Condition Notes: female, human, in vivo
Lab note: write the figure by itself, no unit.

IN: Please report the recorded CDR fold difference to non-pregnant for CC1=C(/C=C/C(C)=C/C=C/C(C)=C/C(=O)O)C(C)(C)CCC1 [all-trans-retinoic acid (ATRA), all-trans-retinoic acid] .
OUT: 0.77

IN: Entry O=C1CN(/N=C/c2ccc([N+](=O)[O-])o2)C(=O)N1 [Nitrofurantoin] : reported CDR fold difference to non-pregnant = ?
OUT: 1.29

IN: Please give the measured CDR fold difference to non-pregnant for this compound: C[C@@H]1C[C@H]2[C@@H]3CCC4=CC(=O)C=C[C@]4(C)[C@@]3(F)[C@@H](O)C[C@]2(C)[C@@]1(O)C(=O)CO [Dexamethasone]
OUT: 1.50

IN: Param item = CN(Cc1cnc2nc(N)nc(N)c2n1)c1ccc(C(=O)N[C@@H](CCC(=O)O)C(=O)O)cc1 [Methotrexate (MTX), Methotrexate] ; retrieve measured CDR fold difference to non-pregnant.
OUT: 1.11

IN: Dear colleague, I am looking for the recorded CDR fold difference to non-pregnant of the following compound: CN(C)C(=N)N=C(N)N [Metformin]
OUT: 0.73

###

Method Description: Human in vivo PK data: concentration-dose ratio (CDR) and toxicokinetic variability factor (TKVF);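 also: Literature-pooled human in vivo PK data, plasma, serum or cord blood concentrations per daily dose, weighted by study population size across non-pregnant, pregnant and fetal groups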
Condition Notes: Non-Pregnant population; TKVF95 = p95 / weighted mean concentration-dose ratio
Measured Property: TKVF

IN: State the recorded TKVF for this entry: O=P1(N(CCCl)CCCl)NCCCO1 (centres unmarked) [Cyclophosphamide]
OUT: 3.15

IN: For the compound shown here, CCCC(CCC)C(=O)O , give the reported TKVF.
OUT: 1.62

IN: So what's the measured TKVF for this one? CC1=C(/C=C/C(C)=C/C=C/C(C)=C/CO)C(C)(C)CCC1
OUT: 2.32

IN: Look up TKVF for this compound: C[C@@H]1CCO[C@H]2Cn3cc(C(=O)NCc4ccc(F)cc4F)c(=O)c(O)c3C(=O)N12
OUT: 1.87

IN: I would be grateful if you could share the reported TKVF for C[n+]1ccc(-c2cc[n+](C)cc2)cc1 .
OUT: 3.16

IN: Quick check: TKVF of CN(Cc1cnc2nc(N)nc(N)c2n1)c1ccc(C(=O)N[C@@H](CCC(=O)O)C(=O)O)cc1 [Methotrexate (MTX), Methotrexate] ?
OUT: 2.74

IN: I would be grateful if you could share the reported TKVF for O=C(O)c1ccccc1O [Salicylate] .
OUT: 1.96

IN: Could you tell me which TKVF is on file for CCN(CC)CCNC(=O)c1cc(Cl)c(N)cc1OC [Metoclopramide] ?
OUT: 2.85
